Exercise: state measured fold change of affinity for each of the binders provided.
- system_tested: T1, Human CD3eg linker (human)
- T1 construct: Single chain: epsilon and gamma subunits of human CD3 joined by a 29-mer linker, Flag-tag at the C-terminus; also called recombinant human CD3
- T1 chain: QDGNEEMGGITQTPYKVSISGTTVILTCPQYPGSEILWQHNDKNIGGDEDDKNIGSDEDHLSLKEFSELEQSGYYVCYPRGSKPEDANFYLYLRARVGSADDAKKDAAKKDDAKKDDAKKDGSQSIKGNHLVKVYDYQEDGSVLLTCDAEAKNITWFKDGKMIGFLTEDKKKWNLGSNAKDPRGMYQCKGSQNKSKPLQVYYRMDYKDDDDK
- assay_text: Biacore SPR, vs template H183/L072
Answers are plain numbers, in fold.

Worked cases, fold change of affinity given:
H183/L072 VH N31H (antibody, name in Kabat numbering, V domains shown) VH: QVQLVESGGGLVQPGRSLRLSCAASGFTFSHAWMHWVRQAPGKGLEWVAQIKDKGNAYAAYYAPSVKGRFTISRDDSKNSIYLQMNSLKTEDTAVYYCHYVHYASASTVLPAFGVDAWGQGTTVTVSS VL: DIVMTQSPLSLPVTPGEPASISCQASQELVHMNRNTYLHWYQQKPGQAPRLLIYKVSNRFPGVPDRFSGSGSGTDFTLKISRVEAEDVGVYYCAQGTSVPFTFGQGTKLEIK; 0.3
H183/L072 VH S30L (antibody, name in Kabat numbering, V domains shown) VH: QVQLVESGGGLVQPGRSLRLSCAASGFTFLNAWMHWVRQAPGKGLEWVAQIKDKGNAYAAYYAPSVKGRFTISRDDSKNSIYLQMNSLKTEDTAVYYCHYVHYASASTVLPAFGVDAWGQGTTVTVSS VL: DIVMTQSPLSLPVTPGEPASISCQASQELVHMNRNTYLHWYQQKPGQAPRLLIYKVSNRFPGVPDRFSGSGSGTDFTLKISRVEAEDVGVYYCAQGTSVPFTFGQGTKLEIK; 0.8
H183/L072 VH Y55Q (antibody, name in Kabat numbering, V domains shown) VH: QVQLVESGGGLVQPGRSLRLSCAASGFTFSNAWMHWVRQAPGKGLEWVAQIKDKGNAQAAYYAPSVKGRFTISRDDSKNSIYLQMNSLKTEDTAVYYCHYVHYASASTVLPAFGVDAWGQGTTVTVSS VL: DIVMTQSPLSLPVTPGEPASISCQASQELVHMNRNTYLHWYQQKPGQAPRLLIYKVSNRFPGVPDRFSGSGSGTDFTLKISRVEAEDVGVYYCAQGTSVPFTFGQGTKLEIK; 0.5
H183/L072 VH I51V (antibody, name in Kabat numbering, V domains shown) VH: QVQLVESGGGLVQPGRSLRLSCAASGFTFSNAWMHWVRQAPGKGLEWVAQVKDKGNAYAAYYAPSVKGRFTISRDDSKNSIYLQMNSLKTEDTAVYYCHYVHYASASTVLPAFGVDAWGQGTTVTVSS VL: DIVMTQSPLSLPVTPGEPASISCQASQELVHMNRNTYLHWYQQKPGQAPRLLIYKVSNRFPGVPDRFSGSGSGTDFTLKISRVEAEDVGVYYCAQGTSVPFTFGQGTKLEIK; 1.1
H183/L072 VH A60M (antibody, name in Kabat numbering, V domains shown) VH: QVQLVESGGGLVQPGRSLRLSCAASGFTFSNAWMHWVRQAPGKGLEWVAQIKDKGNAYAAYYMPSVKGRFTISRDDSKNSIYLQMNSLKTEDTAVYYCHYVHYASASTVLPAFGVDAWGQGTTVTVSS VL: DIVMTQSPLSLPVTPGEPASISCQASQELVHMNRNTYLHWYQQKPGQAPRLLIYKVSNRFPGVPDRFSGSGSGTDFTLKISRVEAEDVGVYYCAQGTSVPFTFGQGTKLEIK; 1
H183/L072 VH K52G (antibody, name in Kabat numbering, V domains shown) VH: QVQLVESGGGLVQPGRSLRLSCAASGFTFSNAWMHWVRQAPGKGLEWVAQIGDKGNAYAAYYAPSVKGRFTISRDDSKNSIYLQMNSLKTEDTAVYYCHYVHYASASTVLPAFGVDAWGQGTTVTVSS VL: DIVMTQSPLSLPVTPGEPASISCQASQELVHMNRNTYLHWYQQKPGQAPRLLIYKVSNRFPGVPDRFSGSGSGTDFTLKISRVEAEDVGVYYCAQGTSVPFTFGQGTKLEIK; 0

Items follow; give fold change of affinity for each.
1. H183/L072 VH I51K (antibody, name in Kabat numbering, V domains shown) VH: QVQLVESGGGLVQPGRSLRLSCAASGFTFSNAWMHWVRQAPGKGLEWVAQKKDKGNAYAAYYAPSVKGRFTISRDDSKNSIYLQMNSLKTEDTAVYYCHYVHYASASTVLPAFGVDAWGQGTTVTVSS VL: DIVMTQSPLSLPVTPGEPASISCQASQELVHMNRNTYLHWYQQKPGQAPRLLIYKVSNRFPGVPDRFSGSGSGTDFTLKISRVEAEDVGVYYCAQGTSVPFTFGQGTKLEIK
2. H183/L072 VH A57S (antibody, name in Kabat numbering, V domains shown) VH: QVQLVESGGGLVQPGRSLRLSCAASGFTFSNAWMHWVRQAPGKGLEWVAQIKDKGNAYASYYAPSVKGRFTISRDDSKNSIYLQMNSLKTEDTAVYYCHYVHYASASTVLPAFGVDAWGQGTTVTVSS VL: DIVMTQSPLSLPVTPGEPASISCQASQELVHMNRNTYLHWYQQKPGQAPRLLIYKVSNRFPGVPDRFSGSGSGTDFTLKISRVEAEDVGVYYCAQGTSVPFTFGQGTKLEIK
3. H183/L072 VH W33S (antibody, name in Kabat numbering, V domains shown) VH: QVQLVESGGGLVQPGRSLRLSCAASGFTFSNASMHWVRQAPGKGLEWVAQIKDKGNAYAAYYAPSVKGRFTISRDDSKNSIYLQMNSLKTEDTAVYYCHYVHYASASTVLPAFGVDAWGQGTTVTVSS VL: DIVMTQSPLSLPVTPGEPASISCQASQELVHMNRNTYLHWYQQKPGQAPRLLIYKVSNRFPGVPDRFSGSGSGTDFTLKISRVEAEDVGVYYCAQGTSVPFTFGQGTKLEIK
4. H183/L072 VH A57M (antibody, name in Kabat numbering, V domains shown) VH: QVQLVESGGGLVQPGRSLRLSCAASGFTFSNAWMHWVRQAPGKGLEWVAQIKDKGNAYAMYYAPSVKGRFTISRDDSKNSIYLQMNSLKTEDTAVYYCHYVHYASASTVLPAFGVDAWGQGTTVTVSS VL: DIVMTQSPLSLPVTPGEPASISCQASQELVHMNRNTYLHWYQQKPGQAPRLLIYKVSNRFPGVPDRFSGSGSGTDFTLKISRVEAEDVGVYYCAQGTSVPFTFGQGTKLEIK

1
1.1
0
0.9
